Data origin: patent US20210115040A1

- TEST_SYSTEM: OGA (Homo sapiens)
- Construct: HEK293 cells inducible for P301L mutant human Tau (isoform 2N4R) were established at Janssen; endogenous in cells; host or cells: HEK293 cells inducible for P301L mutant human Tau (2N4R)
- Sequence (O60502 1-916): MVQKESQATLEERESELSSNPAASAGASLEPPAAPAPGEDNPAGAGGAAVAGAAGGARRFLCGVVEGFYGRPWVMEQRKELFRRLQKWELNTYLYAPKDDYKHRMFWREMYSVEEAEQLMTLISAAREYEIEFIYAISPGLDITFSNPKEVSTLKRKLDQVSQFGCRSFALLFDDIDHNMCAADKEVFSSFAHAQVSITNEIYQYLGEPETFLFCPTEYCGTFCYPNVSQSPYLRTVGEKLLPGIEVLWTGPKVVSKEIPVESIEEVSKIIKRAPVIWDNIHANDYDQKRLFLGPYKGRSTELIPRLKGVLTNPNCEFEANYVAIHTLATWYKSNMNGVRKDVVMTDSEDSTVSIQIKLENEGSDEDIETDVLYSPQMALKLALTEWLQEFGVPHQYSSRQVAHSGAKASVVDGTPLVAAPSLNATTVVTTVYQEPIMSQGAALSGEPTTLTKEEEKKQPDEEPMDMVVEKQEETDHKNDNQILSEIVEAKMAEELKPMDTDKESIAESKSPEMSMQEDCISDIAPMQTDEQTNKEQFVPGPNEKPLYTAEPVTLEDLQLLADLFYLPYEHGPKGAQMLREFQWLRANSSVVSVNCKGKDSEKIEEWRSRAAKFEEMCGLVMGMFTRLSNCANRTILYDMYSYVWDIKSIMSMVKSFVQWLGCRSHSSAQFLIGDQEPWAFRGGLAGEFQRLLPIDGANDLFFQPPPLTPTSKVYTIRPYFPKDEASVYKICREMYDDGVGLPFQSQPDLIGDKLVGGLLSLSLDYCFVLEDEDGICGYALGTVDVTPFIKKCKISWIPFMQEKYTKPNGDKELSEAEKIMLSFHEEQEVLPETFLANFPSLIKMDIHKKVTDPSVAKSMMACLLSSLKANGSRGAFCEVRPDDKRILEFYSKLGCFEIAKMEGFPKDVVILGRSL
- ASSAY_INFO: OGA cellular assay (ICC detection of O-GlcNAcylated proteins in HEK293 cells inducible for P301L mutant human Tau)
- Format: cell-based
- STATED_CONDITIONS: HEK293, HEK293 cells inducible for P301L mutant human Tau, maximum = Thiamet G 200 uM
We begin with a simple list: items and their reported Emax.
The response must be a number in % with no trailing unit.

COMPOUND	MEASUREMENT_UNITS	Emax
Cc1cc(OC[C@H]2CCCN(C(C)c3ccc4sc(C)nc4n3)C2)cc(C)n1 (mixture of isomers) [Compound 46ab]	%	85
Cc1cc([C@H]2CCCN([C@H](C)c3ccc4sc(C)nc4n3)C2)cc(C)n1 (racemic) [Compound 75]	%	-1
Cc1cc(C)nc(CO[C@@H]2CCN(C(C)c3ccc4sc(C)nc4n3)C2)c1 (stereo partly shown) [Compound 80]	%	5
Cc1cc([C@H]2CCCN(C(C)c3nc4nc(C)[nH]c4cc3F)C2)cc(C)n1 (stereo partly shown) [Compound 82]	%	39

Ask: Looking for the measured Emax of Cc1cc(CN[C@H]2CCCN(C(C)c3ccc4sc(C)nc4n3)C2)cc(C)n1 (stereo partly shown) [Compound 84] , can you help?
Reply: 66

Ask: Looking for the measured Emax of Cc1cc(OC[C@H]2CCCN([C@H](C)c3ccc4sc(C)nc4n3)C2)nc(C)n1 [Compound 49b] , can you help?
Reply: 70

Ask: Looking for the measured Emax of Cc1cc(C[C@H]2CCCN(Cc3ccc4[nH]c(C)nc4n3)C2)cc(C)n1 [Compound 9] , can you help?
Reply: 59

Ask: Looking for the measured Emax of Cc1cc([C@H]2CCCN([C@@H](C)c3nc4nc(C)sc4cc3F)C2)cc(C)n1 (single isomer, unassigned) [Compound 87] , can you help?
Reply: 79

Ask: Looking for the measured Emax of COc1cc(CN[C@H]2CCCN(C(C)c3ccc4sc(C)nc4n3)C2)cc(C)n1 (stereo partly shown) [Compound 107] , can you help?
Reply: 60

Ask: Looking for the measured Emax of Cc1cc(CO[C@@H]2CCCN(C(C)c3ccc4sc(C)nc4n3)C2)cc(C)n1 (stereo partly shown) [Compound 68] , can you help?
Reply: 27

---

- TEST_SYSTEM: OGA (Homo sapiens)
- Construct: HEK293 cells inducible for P301L mutant human Tau (isoform 2N4R) were established at Janssen; endogenous in cells; host or cells: HEK293 cells inducible for P301L mutant human Tau (2N4R)
- ASSAY_INFO: OGA cellular assay (ICC detection of O-GlcNAcylated proteins in HEK293 cells inducible for P301L mutant human Tau)
- Type: cell-based
- STATED_CONDITIONS: HEK293 cells inducible for P301L mutant human Tau, 6 hours incubation; read-out: Cellular hOGA; pEC50 (converted)
We begin with a simple list: items and their reported EC50.

Consider the following illustrative entries.
COMPOUND	EC50
Cc1cc(O[C@@H]2CCN(C(C)c3ccc4sc(C)nc4n3)C2)cc(C)n1 (single isomer, unassigned)	> 1000 nM
Cc1cc(CO[C@@H]2CCCN(C(C)c3ccc4sc(C)nc4n3)C2)cc(C)n1 (single isomer, unassigned) [Compound 69]	> 1000 nM

Ask: Looking for the measured EC50 of Cc1cc(C)nc(CO[C@@H]2CCN(C(C)c3ccc4sc(C)nc4n3)C2)c1 (stereo partly drawn) , can you help?
Reply: > 1000 nM

---

We begin with a simple list: items and their reported EC50.
- TEST_SYSTEM: OGA (Homo sapiens)
- Construct: HEK293 cells inducible for P301L mutant human Tau (isoform 2N4R) were established at Janssen; endogenous in cells; host or cells: HEK293 cells inducible for P301L mutant human Tau (2N4R)
- Sequence (O60502 1-916): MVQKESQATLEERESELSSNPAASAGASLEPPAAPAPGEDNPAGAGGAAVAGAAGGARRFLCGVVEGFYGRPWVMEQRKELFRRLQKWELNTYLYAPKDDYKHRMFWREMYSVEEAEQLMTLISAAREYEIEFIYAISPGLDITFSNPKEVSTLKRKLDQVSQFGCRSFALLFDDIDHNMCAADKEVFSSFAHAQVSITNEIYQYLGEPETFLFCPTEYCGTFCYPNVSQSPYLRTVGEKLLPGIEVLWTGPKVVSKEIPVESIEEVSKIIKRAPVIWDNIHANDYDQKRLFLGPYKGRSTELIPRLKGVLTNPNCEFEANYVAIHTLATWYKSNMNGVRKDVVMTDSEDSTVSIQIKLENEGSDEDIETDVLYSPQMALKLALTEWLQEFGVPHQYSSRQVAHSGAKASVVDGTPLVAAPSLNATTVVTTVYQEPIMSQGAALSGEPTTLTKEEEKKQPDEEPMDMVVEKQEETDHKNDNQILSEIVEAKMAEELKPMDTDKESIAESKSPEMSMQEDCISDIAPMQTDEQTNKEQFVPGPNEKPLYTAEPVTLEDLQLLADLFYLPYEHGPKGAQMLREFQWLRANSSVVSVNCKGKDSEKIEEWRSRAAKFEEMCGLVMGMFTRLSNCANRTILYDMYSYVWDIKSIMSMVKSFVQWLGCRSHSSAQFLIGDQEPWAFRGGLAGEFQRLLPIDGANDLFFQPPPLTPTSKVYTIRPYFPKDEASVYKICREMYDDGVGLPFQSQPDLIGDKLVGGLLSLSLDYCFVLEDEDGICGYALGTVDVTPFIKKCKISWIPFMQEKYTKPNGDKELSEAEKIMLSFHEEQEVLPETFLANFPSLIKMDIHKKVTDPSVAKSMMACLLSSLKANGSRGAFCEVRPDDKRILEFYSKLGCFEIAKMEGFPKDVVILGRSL
- ASSAY_INFO: OGA cellular assay (ICC detection of O-GlcNAcylated proteins in HEK293 cells inducible for P301L mutant human Tau)
- Format: cell-based
- STATED_CONDITIONS: HEK293 cells inducible for P301L mutant human Tau, 6 hours incubation; read-out: Cellular hOGA; pEC50 (converted)
- Experimental: HEK293 cells inducible for P301L mutant human Tau (isoform 2N4R) were established at Janssen. Thiamet-G was used for both plate validation (high control) and as reference compound (reference EC50 assay validation). OGA inhibition is evaluated through the immunocytochemical (ICC) detection of O-GlcNAcylated proteins by the use of a monoclonal antibody (CTD110.6; Cell Signaling, #9875) detecting 0-GlcNAcylated residues as previously described (Dorfmueller et al. 2010 Chemistry & biology, 17:1250). […]
The response must be a number in µM with no trailing unit.

Consider the following illustrative entries.
COMPOUND	MEASUREMENT_UNITS	EC50
Cc1cc(CO[C@H]2CCCN(C(C)c3cc4nc(C)sc4cc3F)C2)cc(C)n1 (mixture of isomers) [Compound 99]	µM	0.0631
Cc1cc(OC[C@H]2CCCN(C(C)c3ccc4sc(C)nc4n3)C2)cc(C)n1 (mixture of isomers) [Compound 46ab]	µM	0.0158
Cc1cc(OC[C@H]2CCCN(C(C)c3ccc4sc(C)nc4n3)C2)nc(C)n1 (mixture of isomers) [Compound 49ab]	µM	0.1

Proceed to the following item.
Ask: Looking for the measured EC50 of Cc1cc(C[C@H]2CCCN(C(C)c3cnc4c(c3)nc(C)n4C)C2)cc(C)n1 (mixture of isomers) [Compound 11] , can you help?
Reply: 0.631
